Reference for the values: ChEMBL document CHEMBL3351331

Biological target: Tyrosine-protein kinase BTK (Homo sapiens, UniProt Q06187)
Sequence (Q06187 whole entry): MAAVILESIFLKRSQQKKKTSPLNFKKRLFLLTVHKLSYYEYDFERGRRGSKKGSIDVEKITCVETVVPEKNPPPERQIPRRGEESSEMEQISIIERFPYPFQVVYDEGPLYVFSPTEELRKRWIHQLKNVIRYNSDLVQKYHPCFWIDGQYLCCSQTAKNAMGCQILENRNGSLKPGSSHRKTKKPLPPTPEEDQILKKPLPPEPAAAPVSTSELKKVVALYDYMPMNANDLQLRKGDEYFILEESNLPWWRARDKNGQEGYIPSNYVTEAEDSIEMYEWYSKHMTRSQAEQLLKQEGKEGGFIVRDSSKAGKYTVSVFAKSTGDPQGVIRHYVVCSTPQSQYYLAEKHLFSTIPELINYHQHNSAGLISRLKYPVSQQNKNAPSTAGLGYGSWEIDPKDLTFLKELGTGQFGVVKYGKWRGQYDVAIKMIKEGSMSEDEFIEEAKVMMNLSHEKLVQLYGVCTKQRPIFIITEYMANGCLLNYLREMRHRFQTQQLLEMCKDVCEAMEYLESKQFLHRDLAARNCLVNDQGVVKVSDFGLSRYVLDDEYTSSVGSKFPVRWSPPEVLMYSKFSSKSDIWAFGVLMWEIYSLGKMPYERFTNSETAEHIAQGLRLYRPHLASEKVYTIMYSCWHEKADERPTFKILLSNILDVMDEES
pIC50: −log10 of the molar value.
Reported Metric: pIC50

C=CC(=O)Nc1cccc(Nc2nc(Nc3ccc(O)cc3)ncc2F)c1	> 8.00
C=CC(=O)Nc1cccc(Nc2nc(N(C)c3ccc(OCCO)cc3)ncc2F)c1	7.00
C=CC(=O)Nc1cccc(Nc2nc(Nc3ccc(OCCO)cc3)ncc2F)c1	> 8.00

Query block: Requested read-out: pIC50. Entry: C=CC(=O)Nc1cccc(N(C)c2nc(Nc3ccc(OCCO)cc3)ncc2F)c1
Result block: > 8.00
